All values here come from patent US20260258115A1.

biological target: RSV fusion glycoprotein (RSV F) on RSV-A2 virus (respiratory syncytial virus, UniProt P03420 26-574); test: cell-based or functional assay
OBSERVED PROPERTY: Neutralization IC50 (RSV subtype A)

BINDER: ADI-41389 (antibody, V domains shown, IgG1; also called Ab 683) VH: EVQLVESGGGVVQPGRSLRLSCAASGFTFSNYAIHWVRQAPGKGLEWVAAISYDGGNKFYADSVKGRFTISRDNSRNTLYLQMNSLRPEDTAVYYCARDRWELNYGIDVWGQGTTVTVSS VL: SYELMQPPSVSVSPGQTARITCSGDALPKQYAYWYQQKPGQAPVLVIYKDSERPSGIPERFSGSTSGTTVTLTISGVQAEDEADYYCQSADSSSTFFYVFGTGTKLTVL
Neutralization IC50 (RSV subtype A): > 25 mg/L

Lab note: next binder to report on.
Problem: Identify measured Neutralization IC50 (RSV subtype A) associated with ADI-41386 (antibody, V domains shown) VH: QVQLVQSGAEVKKPGASVKVSCKASGYTFTGNYIHWVRQAPGQGLEWMGGINPNSGATNYARKFQGRISMTRDTSINTAYMEVSSLRSDDTATYYCARDAPPVVIPAAIHWFDAWGQGTLVTVSS VL: SYELTQPPSASGTPGQRVTISCSGSSSNIGRNTVNWYQQFSGTAPRLLIYRTNQRPSGVPDRFSGSKSGTSASLVISGLQSEDEADYYCASWHDTLNDVVFGGGTKLTVL
Solution: > 25 mg/L
